Source listed as patent US20120264685A1.

# cAMP production (pmol/ml/µg prt) with saturated glucagon peptide, at 10 nM per record follows
target: human glucagon receptor (human, UniProt P47871 26-477); assay: cell-based or functional assay
Sequence (P47871 26-477): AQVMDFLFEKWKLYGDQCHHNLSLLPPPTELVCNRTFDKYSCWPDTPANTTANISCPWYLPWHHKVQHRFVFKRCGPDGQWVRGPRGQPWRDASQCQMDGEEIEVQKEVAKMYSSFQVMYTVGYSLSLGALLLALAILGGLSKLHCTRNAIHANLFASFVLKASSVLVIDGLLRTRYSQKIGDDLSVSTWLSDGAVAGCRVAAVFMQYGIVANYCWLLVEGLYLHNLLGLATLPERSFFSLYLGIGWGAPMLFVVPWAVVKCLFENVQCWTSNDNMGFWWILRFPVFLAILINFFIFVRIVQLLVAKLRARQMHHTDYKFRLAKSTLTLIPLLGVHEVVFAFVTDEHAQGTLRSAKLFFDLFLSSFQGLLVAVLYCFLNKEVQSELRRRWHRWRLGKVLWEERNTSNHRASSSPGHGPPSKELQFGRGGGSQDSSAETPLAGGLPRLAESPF
Where no end group is shown, it is not given here. [ ]: non-standard residue; d: D form. αMePhe(2-F) = C[C@](N)(Cc1ccccc1F)C(=O)O; αMeBip(OMe) = alpha-methylated Bip(OMe); hhPhe = N[C@@H](CCCc1ccccc1)C(=O)O; αMeP = C[C@@]1(C(=O)O)CCCN1; Aib = CC(C)(N)C(=O)O
REPORTED ENDPOINT: cAMP production (pmol/ml/µg prt) with saturated glucagon peptide, at 10 nM

{"columns": ["BINDER", "RESULT"],
 "data": [
  ["VVH[Aib]EGTFTSD[αMeBip(OMe)][hhPhe] (not fully specified (C-terminus); printed as VVH-Aib-EGTFTSD-(αMe-Bip(OMe))-(APPA)) [Seq. ID. No. 211]", 5],
  ["VVH[αMeP]QGT[αMePhe(2-F)]TSD[αMeBip(OMe)][hhPhe]-NH2 [Seq. ID. No. 216]", 0],
  ["VH[Aib]QGT[αMePhe(2-F)]TSD[αMeBip(OMe)][hhPhe] (not fully specified (C-terminus); printed as VH-Aib-QGT-(αMe-2FPhe)-TSD-(αMe-Bip(OMe))-(APPA)) [Seq. ID. No. 19]", 12]
]}
